# PROTOCOL: TOR branch reporter RPL19A-GFP response – cell-based, S. cerevisiae, third cherry pick, flow cytometry, confirmation (AID 504336);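 further: median GFP fluorescence of all gated yeast cells by flow cytometry; ratio of well median fluorescence to plate mean of DMSO wells with DMSO = 100%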
# MEASUREMENT_SETUP: S. cerevisiae RPL19A-GFP strain, 3 h, at 10 µM, stronger effect = lower value
Calls of active or inactive are those of the source.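 How the source made its calls: active means compounds whose GFP signal falls below 65% of the DMSO control level; inconclusive means fewer than 70 yeast cells counted in the well; inactive means the rest.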
Hi there, I'd appreciate the recorded GFP response relative to DMSO for every entry that follows.

Exercise: Return reported GFP response relative to DMSO; argument: `Cc1ccc(Nc2nc(N)[nH]c(=O)c2N=O)cc1`
Solution: 102% (inactive)

Exercise: Return reported GFP response relative to DMSO; argument: `NC(=O)COc1cccc2cccnc12`
Solution: 102% (inactive)

Exercise: Return reported GFP response relative to DMSO; argument: `Cc1nc(Nc2ccc(Cl)cc2)c(C#N)c(=O)[nH]1`
Solution: 102% (inactive)

Exercise: Return reported GFP response relative to DMSO; argument: `COc1ccc(OC)c(Nc2nc(NCCC(C)C)nc(N)c2[N+](=O)[O-])c1`
Solution: 103% (inactive)

Exercise: Return reported GFP response relative to DMSO; argument: `Cc1cn2c(N)c(C=C3C=C(Cl)C(=O)C(Cl)=C3)c(=O)nc2s1`
Solution: 104% (inactive)

Exercise: Return reported GFP response relative to DMSO; argument: CC(=O)C(Cl)C(=O)Nc1ccccc1 (stereo not given)
Solution: 98.8% (inactive)

Exercise: Return reported GFP response relative to DMSO; argument: `NC(=O)c1ccnc2c(O)cccc12`
Solution: 98.8% (inactive)

Exercise: Return reported GFP response relative to DMSO; argument: `Cn1cccc1C(=O)Nc1nc(-c2ccccn2)cs1`
Solution: 102% (inactive)

Exercise: Return reported GFP response relative to DMSO; argument: `COc1ccc(NC(=O)ON=C2c3ccccc3-c3ccccc32)cc1`
Solution: 107% (inactive)

Exercise: Return reported GFP response relative to DMSO; argument: `CCc1sc(C(=O)Nc2nc(-c3ccccn3)cs2)cc1C`
Solution: 101% (inactive)

Exercise: Return reported GFP response relative to DMSO; argument: COc1ccccc1OCc1cc(C(=O)N2CCN(C)C(c3ccccc3)C2)no1 (stereo not given)
Solution: 101% (inactive)

Exercise: Return reported GFP response relative to DMSO; argument: `OCCNc1ncnc2ccc(Br)cc12`
Solution: 99.8% (inactive)

Exercise: Return reported GFP response relative to DMSO; argument: `OCCN1CCN(c2ncnc3ccc(Br)cc23)CC1`
Solution: 102% (inactive)

Exercise: Return reported GFP response relative to DMSO; argument: `Cc1cccc(N/C=C/C(=O)c2ccc(Cl)cc2)c1`
Solution: 99.6% (inactive)

Exercise: Return reported GFP response relative to DMSO; argument: `Cc1ccc(C)c(Nc2ncnc(N)c2[N+](=O)[O-])c1`
Solution: 99.3% (inactive)

Exercise: Return reported GFP response relative to DMSO; argument: `N#Cc1c(N)nc(N)nc1Nc1ccc(Br)cc1`
Solution: 99.6% (inactive)

Exercise: Return reported GFP response relative to DMSO; argument: `CCOC(=O)CS(=O)(=O)c1nc(-c2ccccc2)cc(C(F)(F)F)n1`
Solution: 93.1% (inactive)

Exercise: Return reported GFP response relative to DMSO; argument: `Cc1ccc2c(C)ccc(O)c2n1`
Solution: 103% (inactive)

Exercise: Return reported GFP response relative to DMSO; argument: `Oc1c(Br)cc(Br)c2cccnc12`
Solution: 88.3% (inactive)

Exercise: Return reported GFP response relative to DMSO; argument: `CCCC(=O)Nn1cnc2c(c1=O)C1(CCCC1)Cc1ccccc1-2`
Solution: 102% (inactive)

Exercise: Return reported GFP response relative to DMSO; argument: `CNc1cccc2c1C(=O)c1ccccc1C2=O`
Solution: 102% (inactive)

Exercise: Return reported GFP response relative to DMSO; argument: `Cc1nc2c(O)cccc2cc1CO`
Solution: 102% (inactive)

Exercise: Return reported GFP response relative to DMSO; argument: `Cc1ccc(C(=O)/C=C/Nc2cccc(O)c2)cc1`
Solution: 101% (inactive)

Exercise: Return reported GFP response relative to DMSO; argument: `Cc1ccc2nc(-c3ccc(NC(=O)c4cccnc4)cc3)oc2c1`
Solution: 97.2% (inactive)

Exercise: Return reported GFP response relative to DMSO; argument: `O=C(Nc1cccc2ccccc12)ON=C1CCCCC1`
Solution: 101% (inactive)

Exercise: Return reported GFP response relative to DMSO; argument: `Cc1cccc(Nc2cc(=O)[nH]c(=O)[nH]2)c1`
Solution: 100% (inactive)

Exercise: Return reported GFP response relative to DMSO; argument: `Cc1ccc2c(Cl)cc(Cl)c(O)c2n1`
Solution: 82.6% (inactive)

Exercise: Return reported GFP response relative to DMSO; argument: `COc1cc(OC)cc(C(=O)Nc2ccc(-c3nc4ccccc4o3)cc2)c1`
Solution: 103% (inactive)

Exercise: Return reported GFP response relative to DMSO; argument: `O=C(Nc1ccccc1)ON=C1c2ccccc2-c2ccccc21`
Solution: 92.3% (inactive)

Exercise: Return reported GFP response relative to DMSO; argument: `Cc1ccc(Nc2cc(=O)[nH]c(=O)[nH]2)cc1Cl`
Solution: 100% (inactive)

Exercise: Return reported GFP response relative to DMSO; argument: `CNc1nc(N)c([N+](=O)[O-])c(Nc2cccc(Cl)c2)n1`
Solution: 94.1% (inactive)

Exercise: Return reported GFP response relative to DMSO; argument: `COCCNc1nc(N)c([N+](=O)[O-])c(Nc2ccc(F)cc2)n1`
Solution: 100% (inactive)

Exercise: Return reported GFP response relative to DMSO; argument: CCC(C)Nc1nc(N)c([N+](=O)[O-])c(Nc2cc(OC)ccc2OC)n1 (stereo not given)
Solution: 96.5% (inactive)

Exercise: Return reported GFP response relative to DMSO; argument: `O=C(O)c1ccccc1-c1ccccc1C(=O)Nc1ccc(-c2nc3cc(Cl)ccc3o2)cc1`
Solution: 98.5% (inactive)

Exercise: Return reported GFP response relative to DMSO; argument: `C[n+]1cccc2c(Br)ccc([O-])c21`
Solution: 101% (inactive)

Exercise: Return reported GFP response relative to DMSO; argument: `C=CCNc1ncnc2ccc(Br)cc12`
Solution: 99.3% (inactive)

Exercise: Return reported GFP response relative to DMSO; argument: `COc1ccccc1Nc1nc(NCCO)nc(N)c1[N+](=O)[O-]`
Solution: 102% (inactive)

Exercise: Return reported GFP response relative to DMSO; argument: `COc1ccccc1Nc1nc(NCCCN(C)C)nc(N)c1[N+](=O)[O-]`
Solution: 99.1% (inactive)

Exercise: Return reported GFP response relative to DMSO; argument: `C=CCNc1nc(N)c([N+](=O)[O-])c(Nc2ccccc2OC)n1`
Solution: 102% (inactive)

Exercise: Return reported GFP response relative to DMSO; argument: `Nc1c(C(=O)O)ccc2c1C(=O)c1ccccc1C2=O`
Solution: 101% (inactive)

Exercise: Return reported GFP response relative to DMSO; argument: `COC(=O)c1cc(=O)c2cccc(OC)c2[nH]1`
Solution: 101% (inactive)

Exercise: Return reported GFP response relative to DMSO; argument: `COc1ccc(Nc2nc(NN)nc(C)c2[N+](=O)[O-])cc1`
Solution: 99.3% (inactive)

Exercise: Return reported GFP response relative to DMSO; argument: `Cc1cc(C)c(NC(=O)CC(=O)c2ccccc2)c(Cl)c1`
Solution: 97.8% (inactive)

Exercise: Return reported GFP response relative to DMSO; argument: `O=C(Nc1ccccc1)O/N=C1/CCCc2occc21`
Solution: 100% (inactive)

Exercise: Return reported GFP response relative to DMSO; argument: `COc1cc(=O)n(C)c2c(O)cccc12`
Solution: 101% (inactive)

Exercise: Return reported GFP response relative to DMSO; argument: CN1CCN(C(=O)c2cc(COc3ccc(F)cc3Cl)on2)CC1c1ccccc1 (stereo not given)
Solution: 100% (inactive)

Exercise: Return reported GFP response relative to DMSO; argument: `CC(=O)Nn1cnc2c(c1=O)C1(CCCC1)Cc1ccccc1-2`
Solution: 99.3% (inactive)

Exercise: Return reported GFP response relative to DMSO; argument: `Nc1cccc2c1C(=O)c1ccc(Cl)cc1C2=O`
Solution: 102% (inactive)

Exercise: Return reported GFP response relative to DMSO; argument: `Cc1ccc(Nc2cc(=O)[nH]c(=O)[nH]2)cc1C`
Solution: 96.5% (inactive)

Exercise: Return reported GFP response relative to DMSO; argument: `COc1cccc2c(=O)c(C(=O)O)c[nH]c12`
Solution: 98.3% (inactive)
